Where do the numbers come from? From ChEMBL document CHEMBL5308504.

biological target: Fibroblast growth factor receptor 3 (Homo sapiens) (UniProt P22607); settings: Compound concentration 20.0 uM, Protein concentration 2.0 uM, Result type QC Liability
Sequence (P22607 23-806 limits assumed): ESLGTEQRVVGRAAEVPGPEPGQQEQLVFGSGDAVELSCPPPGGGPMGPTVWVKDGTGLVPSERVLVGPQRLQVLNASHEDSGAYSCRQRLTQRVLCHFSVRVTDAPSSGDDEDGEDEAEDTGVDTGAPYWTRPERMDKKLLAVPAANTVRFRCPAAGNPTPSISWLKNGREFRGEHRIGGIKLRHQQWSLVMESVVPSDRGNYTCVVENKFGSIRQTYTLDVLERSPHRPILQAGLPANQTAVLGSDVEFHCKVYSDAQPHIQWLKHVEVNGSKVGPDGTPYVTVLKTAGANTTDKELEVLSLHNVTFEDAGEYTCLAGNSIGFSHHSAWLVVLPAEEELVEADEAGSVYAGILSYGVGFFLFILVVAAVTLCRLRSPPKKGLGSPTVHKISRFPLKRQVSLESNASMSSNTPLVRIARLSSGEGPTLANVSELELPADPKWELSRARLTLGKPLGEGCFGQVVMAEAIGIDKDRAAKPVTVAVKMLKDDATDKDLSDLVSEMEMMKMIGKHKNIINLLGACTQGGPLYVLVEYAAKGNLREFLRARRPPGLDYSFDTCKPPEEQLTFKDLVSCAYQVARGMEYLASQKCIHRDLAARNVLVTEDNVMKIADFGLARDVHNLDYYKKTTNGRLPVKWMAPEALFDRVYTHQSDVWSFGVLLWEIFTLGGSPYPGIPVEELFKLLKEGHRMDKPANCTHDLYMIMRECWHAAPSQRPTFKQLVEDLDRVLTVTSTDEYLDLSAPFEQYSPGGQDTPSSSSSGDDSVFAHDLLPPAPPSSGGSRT
Description: Thermal Shift Assay. Domain: start/stop: P449-E759
metric: ΔTm (°C)
Kindly answer with a numeric value in °C, unit omitted.

Nc1ncnc2c1c(I)cn2[C@@H]1O[C@H](CO)[C@@H](O)[C@H]1O; 3.13
CCc1cnn2c(NCc3ccc[n+]([O-])c3)cc(N3CCCCC3CCO)nc12 (stereo not drawn); 1.49

Now consider a different compound.
Enquiry: Name the recorded ΔTm of CC(C(=O)Nc1cc(C#N)ccc1CCCC(=O)O)c1ccc(F)c2ccccc12 (stereo not drawn) , assay system Fibroblast growth factor receptor 3 (Homo sapiens) (UniProt P22607).
Return: 0.51

---

Parameter: ΔTm. Scope: all listed entries.
Biological target: Peregrin (Homo sapiens) (UniProt P55201)
Sequence (whole entry): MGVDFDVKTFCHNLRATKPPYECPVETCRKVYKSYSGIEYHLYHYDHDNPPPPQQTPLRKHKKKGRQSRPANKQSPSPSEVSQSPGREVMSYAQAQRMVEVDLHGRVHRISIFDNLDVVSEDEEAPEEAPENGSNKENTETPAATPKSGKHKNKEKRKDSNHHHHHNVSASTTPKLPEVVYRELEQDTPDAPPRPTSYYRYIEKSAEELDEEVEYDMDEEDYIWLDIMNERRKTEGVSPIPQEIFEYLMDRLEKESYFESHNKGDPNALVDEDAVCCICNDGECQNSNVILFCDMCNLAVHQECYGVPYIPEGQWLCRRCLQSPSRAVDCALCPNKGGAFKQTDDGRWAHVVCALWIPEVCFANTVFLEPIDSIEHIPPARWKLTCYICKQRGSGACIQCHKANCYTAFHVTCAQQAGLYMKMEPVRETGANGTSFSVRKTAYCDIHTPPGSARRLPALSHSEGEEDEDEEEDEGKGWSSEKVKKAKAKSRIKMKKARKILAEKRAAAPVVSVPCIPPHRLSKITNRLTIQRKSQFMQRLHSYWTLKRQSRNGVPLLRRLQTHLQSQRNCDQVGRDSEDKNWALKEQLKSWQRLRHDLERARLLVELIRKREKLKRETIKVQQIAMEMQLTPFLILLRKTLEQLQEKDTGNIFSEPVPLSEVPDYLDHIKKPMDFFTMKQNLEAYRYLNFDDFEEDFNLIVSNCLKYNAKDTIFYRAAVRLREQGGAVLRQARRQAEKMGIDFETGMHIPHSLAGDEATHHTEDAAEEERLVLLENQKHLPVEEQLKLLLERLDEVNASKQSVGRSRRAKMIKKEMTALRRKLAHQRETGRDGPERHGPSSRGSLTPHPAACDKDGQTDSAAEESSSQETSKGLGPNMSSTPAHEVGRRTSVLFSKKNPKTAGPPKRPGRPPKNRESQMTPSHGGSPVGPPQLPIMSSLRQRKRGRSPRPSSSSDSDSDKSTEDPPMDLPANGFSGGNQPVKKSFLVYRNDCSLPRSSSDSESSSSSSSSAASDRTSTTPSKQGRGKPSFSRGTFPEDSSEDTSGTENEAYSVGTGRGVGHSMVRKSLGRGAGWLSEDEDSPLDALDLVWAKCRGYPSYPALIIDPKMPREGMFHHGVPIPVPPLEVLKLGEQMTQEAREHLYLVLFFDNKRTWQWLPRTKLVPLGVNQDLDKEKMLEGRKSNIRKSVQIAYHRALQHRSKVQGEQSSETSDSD
Conditions: Compound concentration 20.0 uM, Protein concentration 2.0 uM, Result type QC Liability
Kindly answer with a numeric value in °C, unit omitted.

Record excerpt, results attached:
CCCCOc1c(C(=O)c2c(F)cc(C)cc2F)c[nH]c2nncc1-2; -1.13
CC(F)(F)CN1C(=O)c2[nH]nc(-c3cccc4[nH]c(=O)oc34)c2C1c1ccc(Oc2cc(C(F)(F)F)cc(C(F)(F)F)c2)cc1 (stereo not given); -0.66

Enquiry: Return reported ΔTm. Input compound: CN[C@@H]1CC[C@@H](c2ccc(Cl)c(Cl)c2)c2ccccc21
Return: -1.62

Enquiry: Return reported ΔTm. Input compound: Nc1nccc(-c2c(-c3ccc(F)cc3)ncn2C2CCN(Cc3ccon3)CC2)n1
Return: -1.77

Enquiry: Return reported ΔTm. Input compound: COc1ccccc1[C@@H]1CNCCC12CCN(C(=O)[C@](OC)(c1ccccc1)C(F)(F)F)CC2
Return: -1.57

Enquiry: Return reported ΔTm. Input compound: CC[C@@H](Nc1c(C#N)c(-c2ccc(-c3cccc(C)c3F)cc2)nc2cnccc12)C(=O)O
Return: -0.66

Enquiry: Return reported ΔTm. Input compound: Cc1cc(Cn2c(N3CC4(CNC4)C3)nc3cc(Cl)cc(N4CCN(C)CC4)c32)cc(C)c1F
Return: -2.07

Enquiry: Return reported ΔTm. Input compound: COCc1c(-c2cc3cc(C)cc(OC)c3s2)c2c(N)ncnn2c1CN[C@@H]1CCNC1=O
Return: -2.51

---

biological target: Peregrin (Homo sapiens) (UniProt P55201); settings: Compound concentration 20.0 uM, Protein concentration 2.0 uM, Result type QC Liability
# class assignment by measured ΔTm: L: < -2 °C; M: ≥ -2 °C and < -0.6 °C; H: ≥ -0.6 °C

Worked set:
COc1cc(-c2cn[nH]c2)ccc1C(=O)Nc1ccc2c(c1)CCNCC2; H
CCN1CCN(Cc2ccc(C(=O)Nc3ccc(C)c(Oc4ccc5c(c4)CC(=O)N5)c3)cc2C(F)(F)F)CC1; M
O=C(Nc1cccc(Nc2nccc(Nc3cccc(C(F)(F)F)c3)n2)c1)C1CC1; H
O=C(CCCCCCc1ccccc1)c1ncc(-c2ccccn2)o1; L
CC(C)[C@H](CO)Nc1nc(Nc2ccc(C(=O)O)c(Cl)c2)c2ncn(C(C)C)c2n1; H
CCc1ccc(N(CC(C)C)S(=O)(=O)c2ccc(OCC3CCOCC3)c(CO)c2)cc1; H
Cc1cc(OCc2nc3ccccc3s2)ccc1NC(=O)Nc1ccc(Cl)c(Cl)c1; L
Cc1cccc(-c2[nH]c(CNc3ccccc3F)nc2-c2ccc3ncnn3c2)n1; H
Cc1cc(S(=O)(=O)N2CC(C)(C)c3cc(-c4ccc(C(F)(F)F)cc4)ccc32)ccc1OCC(=O)O; L
Cc1c(NC(=O)c2ccc(C(C)(C)C)cc2)cccc1-c1cn(C)c(=O)c(Nc2ccc(C(=O)N3CCOCC3)cc2)n1; L

Enquiry: Hi, small favor: classify Fc1ccc(-c2c3cccc(C(F)(F)F)c3nn2Cc2ccc(F)cc2Cl)cc1 by its ΔTm when you get a moment.
Return: L

Enquiry: Hi, small favor: classify NC(=O)c1sc2nc(N3CCC(NC[C@H](O)c4ccccn4)CC3)cc(C(F)(F)F)c2c1N by its ΔTm when you get a moment.
Return: M

Enquiry: Hi, small favor: classify Cc1c(N2CCNCC2)nc2ccc(Br)cc2c1C(=O)NC[C@H](CCC(=O)O)c1ccccc1Cl by its ΔTm when you get a moment.
Return: L

Enquiry: Hi, small favor: classify O=C(O)CCCCN(CCc1cc(F)ccc1OCc1ccc(-c2ccc(C(F)(F)F)cc2)cc1)Cc1ccc(C(=O)O)cc1 by its ΔTm when you get a moment.
Return: L

Enquiry: Hi, small favor: classify Cc1cc(C2CCCNC2)ccc1Nc1ncc(Br)c(NCc2cccc3c2C(C)(C)C(=O)N3)n1 (centres undefined) by its ΔTm when you get a moment.
Return: M

---

biological target: Peregrin (Homo sapiens) (UniProt P55201); conditions: Compound concentration 20.0 uM, Protein concentration 2.0 uM, Result type QC Liability
Parameter: ΔTm. Scope: all listed entries.
Kindly answer with a numeric value in °C, unit omitted.

Record excerpt, results attached:
CC1=C(C(=O)OCCO)[C@@H](c2ccc(C#N)cc2)NC(=O)N1c1cccc(C(F)(F)F)c1; -1.72
CN(C)C(=O)Cn1cc(-c2nc([C@@](C)(c3ccc(-c4cnc(N)nc4)cc3)C3CC3)no2)cn1; -1.93

Now consider a different compound.
Enquiry: Return reported ΔTm. Input compound: CC(C)Nc1ncnc2cc(OCc3cccc([S@@](C)(=N)=O)c3)c(Br)cc12
Return: -2.23

---

target: Fibroblast growth factor receptor 3 (Homo sapiens); conditions: Compound concentration 20.0 uM, Protein concentration 2.0 uM, Result type QC Liability
metric: ΔTm (°C)
Kindly answer with a numeric value in °C, unit omitted.

Nc1nccc(-c2c(-c3ccc(F)cc3)ncn2C2CCCCC2)n1; 0.92
Cc1cc(-c2cnc(N)c3c(-c4ccc5scnc5c4)csc23)n(C)n1; 0.89
CC(C)(C)c1cnc(CSc2cnc(NC(=O)C3CCNCC3)s2)o1; 0.5

Enquiry: Return reported ΔTm. Input compound: CN(C1CCc2c(c3ccccc3n2CC(=O)O)C1)S(=O)(=O)c1ccc(F)cc1 (stereo unspecified)
Return: 0.46

Enquiry: Return reported ΔTm. Input compound: N#CC[C@H](C1CCCC1)n1cc(-c2ncnc3[nH]ccc23)cn1
Return: 3.43

Enquiry: Return reported ΔTm. Input compound: CN(C(=O)c1cnn2cccnc12)c1cc2c(cc1N1CCOCC1)C(=O)N(C[C@@H](F)C(C)(C)O)C2
Return: 1.38
